- Test system: SARS-CoV-2 "NRC-03-nhCoV" virus
- test name: Inhibitory concentration 50 (IC50) determination, reduction of virus-induced cytopathic effect in Vero-E6 cells
- Type: cell-based
- test conditions: Severe acute respiratory syndrome coronavirus 2, Vero C1008, 72 h, against NRC-03-nhCoV in Vero E6, 72 h, CPE reduction, crystal violet; unit not given in Table 4 and Figure 6, Figure 4 and text print μM; read-out: IC50 (half-maximal inhibitory concentration)
Reported IC50 values are given for each entry in this list.
reported metric: IC50

                                   compound                    system_tested  result
0  CC1(C)CCC2(C(=O)OCc3cn(-c4ccccc4)nn3)CCC3(C)C(=CCC4C5(C)CC(O)C(O)C(C)(C)C5CCC43C)C2C1 (stereo not drawn)  SARS-CoV-2 "NRC-03-nhCoV" virus  135 µM
1  C#CCOC(=O)[C@]12CCC(C)(C)CC1C1=CCC3[C@@]4(C)C[C@@H](O)[C@H](O)C(C)(C)C4CC[C@@]3(C)[C@]1(C)CC2 (stereo partly drawn)  SARS-CoV-2 "NRC-03-nhCoV" virus  236 µM
2  CC1(C)CC[C@]2(C(=O)O)CC[C@]3(C)C(=CC[C@@H]4[C@@]5(C)CC[C@H](O)C(C)(C)[C@@H]5CC[C@]43C)[C@@H]2C1  SARS-CoV-2 "NRC-03-nhCoV" virus  476 µM
